assay-name: Single-dose pharmacokinetics of metapristone in rats (p.o. and i.v.), non-compartmental analysis
Format: in vivo, Sprague Dawley (SD) rats
test-settings: Sprague-Dawley, rat, plasma, po; male rats, p.o. 45 mg/kg
measured-quantity: Cmax (ng/mL)

>>> recorded_measurement("CC#C[C@]1(O)CC[C@H]2[C@@H]3CCC4=CC(=O)CCC4=C3[C@@H](c3ccc(NC)cc3)C[C@@]21C")
140

----------
assay-name: Single-dose pharmacokinetics of metapristone in rats (p.o. and i.v.), non-compartmental analysis
Format: in vivo, Sprague Dawley (SD) rats
test-settings: Sprague-Dawley, rat, plasma, po; male rats, p.o. 90 mg/kg
measured-quantity: half-life (h)

>>> recorded_measurement("CC#C[C@]1(O)CC[C@H]2[C@@H]3CCC4=CC(=O)CCC4=C3[C@@H](c3ccc(NC)cc3)C[C@@]21C")
4.62

----------
assay-name: Single oral dose pharmacokinetics of metapristone in beagle dogs, non-compartmental analysis
Type: in vivo
test-settings: beagle, dog, plasma, po; female dogs, p.o. 11.25 mg/kg
measured-quantity: Vd/F (L/kg)

>>> recorded_measurement("CC#C[C@]1(O)CC[C@H]2[C@@H]3CCC4=CC(=O)CCC4=C3[C@@H](c3ccc(NC)cc3)C[C@@]21C")
105

----------
assay-name: Single oral dose pharmacokinetics of metapristone in beagle dogs, non-compartmental analysis
Type: in vivo
test-settings: beagle, dog, plasma, po; female dogs, p.o. 11.25 mg/kg
measured-quantity: half-life (h)

>>> recorded_measurement("CC#C[C@]1(O)CC[C@H]2[C@@H]3CCC4=CC(=O)CCC4=C3[C@@H](c3ccc(NC)cc3)C[C@@]21C [metapristone, N-monodemethyl mifepristone]")
8.57

----------
assay-name: Single oral dose pharmacokinetics of metapristone in beagle dogs, non-compartmental analysis
Type: in vivo
test-settings: beagle, dog, plasma, po; female dogs, p.o. 22.5 mg/kg
measured-quantity: Cmax (ng/mL)

>>> recorded_measurement("CC#C[C@]1(O)CC[C@H]2[C@@H]3CCC4=CC(=O)CCC4=C3[C@@H](c3ccc(NC)cc3)C[C@@]21C")
380

----------
assay-name: Single-dose pharmacokinetics of metapristone in rats (p.o. and i.v.), non-compartmental analysis
Type: in vivo, Sprague Dawley (SD) rats
test-settings: Sprague-Dawley, rat, plasma, po; male rats, p.o. 90 mg/kg
measured-quantity: AUC(0-inf) (ng·h/mL)

>>> recorded_measurement("CC#C[C@]1(O)CC[C@H]2[C@@H]3CCC4=CC(=O)CCC4=C3[C@@H](c3ccc(NC)cc3)C[C@@]21C")
8920

----------
assay-name: Single oral dose pharmacokinetics of metapristone in beagle dogs, non-compartmental analysis
Type: in vivo
test-settings: beagle, dog, plasma, po; male dogs, p.o. 22.5 mg/kg
measured-quantity: Cmax (ng/mL)

>>> recorded_measurement("CC#C[C@]1(O)CC[C@H]2[C@@H]3CCC4=CC(=O)CCC4=C3[C@@H](c3ccc(NC)cc3)C[C@@]21C [metapristone, N-monodemethyl mifepristone]")
300

----------
assay-name: Single-dose pharmacokinetics of metapristone in rats (p.o. and i.v.), non-compartmental analysis
Assay type: in vivo, Sprague Dawley (SD) rats
test-settings: Sprague-Dawley, rat, plasma, po; female rats, p.o. 90 mg/kg
measured-quantity: half-life (h)

>>> recorded_measurement("CC#C[C@]1(O)CC[C@H]2[C@@H]3CCC4=CC(=O)CCC4=C3[C@@H](c3ccc(NC)cc3)C[C@@]21C")
8.83
